# test_description: Part 2 relative bioavailability and food effect, plasma PK
# Assay type: in vivo, human
# measurement_conditions: male, human, plasma, po, 200 mg, Regimen H: 200 mg Liquid Formulation, Fasted; single oral dose; plasma; geometric mean (CV%); read-out: Vz/F
property: Vd/F (L)
State just the number; it will be interpreted in L.

[Q] What does the data say about its Vd/F? Entry: CC(C)NC(=O)COc1cccc(-c2nc(Nc3ccc4[nH]ncc4c3)c3ccccc3n2)c1 [Belumosudil, reference compound]
[A] 325

====

# test_description: Part 2 relative bioavailability and food effect, plasma PK
# Format: in vivo, human
# measurement_conditions: male, human, plasma, oral, 200 mg, Regimen H, liquid formulation fasted; read-out: elimination half-lives (range)
property: half-life

[Q] May I ask what half-life has been recorded for CC(C)NC(=O)COc1cccc(-c2nc(Nc3ccc4[nH]ncc4c3)c3ccccc3n2)c1 [Belumosudil, reference compound] ?
[A] 5.36 to 23.8 h

Source: patent US20260097036A1
